Molecular target: AgMyo5
Assay: SPOT peptide array binding signal intensity (averaged, normalized) (arbitrary units (background-subtracted, floor 0; scale differs between SH3 domains)); higher = stronger binding of the SH3 domain to the peptide
Entries annotated with measured SPOT peptide array binding signal intensity
Form rule: numeric answer, no unit written next to it.

Check out these entries, answers already filled in.
Q. So what does the record say about SPOT peptide array binding signal intensity for "ISRRRLPVIMHRLKM" ?
A. 0.25

Q. So what does the record say about SPOT peptide array binding signal intensity for "YHSRRHPLALGFKYV" ?
A. 3.25

Q. So what does the record say about SPOT peptide array binding signal intensity for "ILARAILTIPRVLDK" ?
A. 1

Q. So what does the record say about SPOT peptide array binding signal intensity for "PELAPKREAPKPPAN" ?
A. 560

Next:
Q. So what does the record say about SPOT peptide array binding signal intensity for "RSVKRPRRAPRPVVS" ?
A. 1.25

Q. So what does the record say about SPOT peptide array binding signal intensity for "PSTMDFPKLPSFQNS" ?
A. 13.5

Q. So what does the record say about SPOT peptide array binding signal intensity for "RRGPAPPPPPRASRP" ?
A. 89

Q. So what does the record say about SPOT peptide array binding signal intensity for "SNRRPVPRRPSQPLN" ?
A. 0.25

Q. So what does the record say about SPOT peptide array binding signal intensity for "RPPRPPPKPLHLRTE" ?
A. 8.25

Q. So what does the record say about SPOT peptide array binding signal intensity for "VDFTLPPPPPPPGLD" ?
A. 1660

Q. So what does the record say about SPOT peptide array binding signal intensity for "RPKRRAPPPVPKKPS" ?
A. 124
